- Test system: clone M28.9B
- assayText: TNF-release assay: gp100-specific TIL clone co-cultured with peptide-loaded HLA-B*3501 EBV cells
- Assay type: cell-based
- conditionContext: clone M28.9B; EBV cells expressing HLA-B*3501 loaded with 10 μM peptide; 6 hours co-culture
Ends that are not written are not given here.
property: TNF (pg/mL)

   sequencerecord  property      u  readoutvalue
0       VPLDCVLYR       TNF  pg/mL           170
1       PLDCVLYRY       TNF  pg/mL           2.8
2      QVPLDCVLYR       TNF  pg/mL           430
3      VPLDCVLYRY       TNF  pg/mL           380

====

- System: clone M171.100B
- assayText: TNF-release assay: tyrosinase-specific TIL clone co-cultured with peptide-loaded HLA-B*3501 EBV cells
- Format: cell-based
- conditionContext: clone M171.100B; EBV cells expressing HLA-B*3501 loaded with 10 μM peptide; 6 hours co-culture
- Method: These COS-7 cells were used, 48 h after transfection, to stimulate the various TIL clones (2×10^3 to […]). The culture supernatants were removed 6 hours later and the TNF concentration thereof was determined by measuring the cytotoxicity of these culture supernatants for the clone 13 WEHI 164, as described by DE PLAEN et al. (1997, mentioned above). […]
Ends that are not written are not given here.
Here, each record is paired with measured log10 TNF data.
property: log10 TNF (log10 of the value in pg/mL)

>>> df
                             sequencerecord   property  readoutvalue
0            LPSSADVEF [reference compound]  log10 TNF          0.87
1                            TPRLPSSADVEFCL  log10 TNF          2.49
2  PRLPSSADVEFCL (listed as Homo sapiens) [tyrosinase peptide 310-322]  log10 TNF          1.43
3  TPRLPSSADVE (listed as Homo sapiens) [tyrosinase peptide 309-319]  log10 TNF          1.95
4                              TPRLPSSADVEF  log10 TNF          2.78
5  LPSSADVEFC (listed as Homo sapiens) [tyrosinase peptide 312-321]  log10 TNF          0.99
6                             TPRLPSSADVEFC  log10 TNF          2.33
7  TPRLPSSADV (listed as Homo sapiens) [tyrosinase peptide 309-318]  log10 TNF         -0.70
